Test: Acute toxicity, intraperitoneal
Details: mouse, in vivo, ip, male Swiss mice, intraperitoneal, 7 days observation; preliminary, by graphic interpolation; read-out: acute toxicity (LD50 / DL50)
OBSERVATION_TYPE: LD50 at 168 h (mg/kg)
Provide only the numeric value, understood in mg/kg.

RECORD_SMILES: C=CCOc1ccc(C(=O)NCc2cccnc2)cc1C(=O)NCc1cccnc1
LD50 at 168 h (mg/kg): 374
--
RECORD_SMILES: CCCCCOc1ccc(C(=O)NCc2cccnc2)cc1C(=O)NCc1cccnc1
LD50 at 168 h (mg/kg): 380
--
RECORD_SMILES: C=C(C)Oc1c(Cl)cc(C(=O)N(C)Cc2cccnc2)cc1C(=O)N(C)Cc1cccnc1
LD50 at 168 h (mg/kg): 194
--
RECORD_SMILES: COc1cc(C(=O)NCc2cccnc2)cc(C(=O)NCc2cccnc2)c1OC1CC1
LD50 at 168 h (mg/kg): 228
--
RECORD_SMILES: CCC(C)(C)Oc1c(Cl)cc(C(=O)NCc2cccnc2)cc1C(=O)NCc1cccnc1
LD50 at 168 h (mg/kg): 206

-- ask Give the measured LD50 at 168 h of COc1c(Cl)cc(C(=O)N(Cc2ccncc2)C(C)C)cc1C(=O)N(Cc1ccncc1)C(C)C .
-- reply 384

-- ask Give the measured LD50 at 168 h of CC(C)(C)COc1c(C(=O)NCc2cccnc2)cc(C(=O)NCc2cccnc2)cc1[N+](=O)[O-] .
-- reply 194

-- ask Give the measured LD50 at 168 h of CC=COc1c(Cl)cc(C(=O)N(Cc2cccnc2)C(CC)CC)cc1C(=O)N(Cc1cccnc1)C(CC)CC .
-- reply 198

src = patent US4294833A
